Below: a set of entries, each annotated with reported pKi.
# study.system: NDM-1 (Klebsiella pneumoniae)
# Sequence (C7C422 29-270, looked up, species assumed): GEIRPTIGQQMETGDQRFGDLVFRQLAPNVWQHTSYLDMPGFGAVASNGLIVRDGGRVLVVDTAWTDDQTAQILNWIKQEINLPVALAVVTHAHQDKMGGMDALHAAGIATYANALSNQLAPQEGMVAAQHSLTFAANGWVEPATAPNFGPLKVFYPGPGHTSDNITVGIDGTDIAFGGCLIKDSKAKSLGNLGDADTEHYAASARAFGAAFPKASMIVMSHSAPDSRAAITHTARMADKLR
# test.summary: Inhibition of purified class B carbapenemase NDM-1 (Ki, imipenem substrate)
# Format: biochemical
# conditions.used: NDM-1, substrate imipenem; read-out: Ki NDM-1, Imipenem
pKi: −log10 of the molar value.

Observe how each entry below is paired with its result.
COCc1ccc2c(c1C(=O)O)OB(O)[C@@H](Sc1nnc(N)s1)C2	7.00 to 8.00
O=C(O)c1cccc2c1OB(O)[C@@H](OC1CNC1)C2	7.00 to 8.00
CSc1ccc2c(c1C(=O)O)OB(O)[C@@H](Sc1nncn1C)C2	7.00 to 8.00
O=C(O)c1c(OCc2nncs2)ccc2c1OB(O)[C@@H](Sc1nncs1)C2	< 7.00
Nc1nnc(S[C@H]2Cc3cccc(C(=O)O)c3OB2O)s1	> 8.00
COc1ccc2c(c1C(=O)O)OB(O)[C@@H](Sc1nnc(C(F)(F)F)n1N)C2	< 7.00
O=C(O)c1cccc2c1OB(O)[C@@H](Sc1nnc[nH]1)C2	> 8.00
Nc1nnc(S[C@H]2Cc3ccc(F)c(C(=O)O)c3OB2O)s1	7.00 to 8.00
COc1ccc2c(c1C(=O)O)OB(O)[C@@H](Sc1nnc(NC3CNC3)s1)C2	> 8.00
O=C(O)c1cccc2c1OB(O)[C@@H](Sc1ccccc1)C2	> 8.00

Would you mind telling me what pKi value was observed for "COc1ccc2c(c1C(=O)O)OB(O)[C@@H](Sc1nnc(NC(=N)N)s1)C2" ?
< 7.00

Would you mind telling me what pKi value was observed for "COc1c(F)cc2c(c1C(=O)O)OB(O)[C@@H](Sc1nnc(N)s1)C2" ?
7.00 to 8.00

Would you mind telling me what pKi value was observed for "COc1ccc2c(c1C(=O)O)OB(O)[C@@H](Sc1nnc(NCCN3CCNCC3)s1)C2" ?
7.00 to 8.00

Would you mind telling me what pKi value was observed for "COc1ccc2c(c1C(=O)O)OB(O)[C@@H](Sc1nncn1N)C2" ?
> 8.00

Would you mind telling me what pKi value was observed for "Nc1nnc(S[C@H]2Cc3c(F)c(F)c(F)c(C(=O)O)c3OB2O)s1" ?
< 7.00

Would you mind telling me what pKi value was observed for "Nc1nnc(S[C@H]2Cc3ccc(OCC(=O)NC4CNC4)c(C(=O)O)c3OB2O)s1" ?
< 7.00

Would you mind telling me what pKi value was observed for "COc1ccc2c(c1C(=O)O)OB(O)[C@@H](Sc1nnc(SCCCN)s1)C2" ?
> 8.00

Would you mind telling me what pKi value was observed for "CC(C)Oc1ccc2c(c1C(=O)O)OB(O)[C@@H](Sc1nncs1)C2" ?
< 7.00
